system_name: human PAH with the R408W mutation (Homo sapiens, UniProt P00439, R408W)
Construct: expressed in transfected cells
Sequence (P00439 1-452 R408W): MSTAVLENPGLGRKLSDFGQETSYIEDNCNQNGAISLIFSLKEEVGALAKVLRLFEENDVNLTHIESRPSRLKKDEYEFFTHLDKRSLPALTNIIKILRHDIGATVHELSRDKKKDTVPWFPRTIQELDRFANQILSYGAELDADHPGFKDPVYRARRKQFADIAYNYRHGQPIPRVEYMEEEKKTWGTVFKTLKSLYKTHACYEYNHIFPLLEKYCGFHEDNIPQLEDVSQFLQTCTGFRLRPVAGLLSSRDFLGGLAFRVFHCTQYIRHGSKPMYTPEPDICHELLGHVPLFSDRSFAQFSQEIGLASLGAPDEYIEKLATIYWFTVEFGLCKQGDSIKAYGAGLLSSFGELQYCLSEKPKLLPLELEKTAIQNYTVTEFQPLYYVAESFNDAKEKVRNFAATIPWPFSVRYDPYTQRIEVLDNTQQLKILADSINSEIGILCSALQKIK
method: Cell Based Phenylalanine Flux Assay;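 note: Ten-point dose curve from 2-fold serial dilutions, run in duplicate at 0.5% DMSO final, tracer step used 20 µM sepiapterin and 800 µM labeled phenylalanine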
condition_info: A375 cells expressing human R408W PAH; 24 hrs compound incubation; 13C-Tyrosine by LC-MS; average where tested multiple times; read-out: AC50
Field: AC50. Provide a value for each of the molecules that follow.

Reference set, count: 5
[[record]]
molecule = "CC(C)(F)c1nnc(C(=O)N2CCc3[nH]cnc3[C@H]2c2cc3cccc(Cl)n3n2)o1"
measured_quantity = "AC50"
experimental_result = "< 500 nM"

[[record]]
molecule = "CC(C)(C)c1nnc(C(=O)N2CCc3[nH]cnc3[C@@H]2c2cc3ccc(F)cn3n2)o1"
measured_quantity = "AC50"
experimental_result = "1000 to 5000 nM"

[[record]]
molecule = "N#Cc1ncoc1C(=O)N1CCc2[nH]cnc2[C@H]1c1cc2ccccn2n1 (single isomer, unassigned)"
measured_quantity = "AC50"
experimental_result = "500 to 1000 nM"

[[record]]
molecule = "Cc1cccn2nc([C@H]3c4nc[nH]c4CCN3C(=O)c3nc(C4CC4)nn3C)cc12"
measured_quantity = "AC50"
experimental_result = "> 5000 nM"

[[record]]
molecule = "Cc1ccn2nc([C@@H]3c4nc[nH]c4CCN3C(=O)c3cnco3)cc2c1"
measured_quantity = "AC50"
experimental_result = "1000 to 5000 nM"


// each listed molecule needs a value for AC50
1. Cc1nc(C(C)(C)F)oc1C(=O)N1CCc2[nH]cnc2[C@H]1c1cc2cccc(C(F)(F)F)n2n1
2. Cc1ncoc1C(=O)N1CCc2[nH]cnc2[C@H]1c1cc2cccc(C(F)(F)F)n2n1
3. Cc1cc(-c2nnc(C(=O)N3CCc4[nH]cnc4[C@H]3c3cc4c(F)cccn4n3)o2)nn1C

["< 500 nM", "500 to 1000 nM", "< 500 nM"]
